setupConditions: in n-propyl acetate, 313.15 K
testReadout: solubility (mole fraction)
Please state the value as a number alone, without comment.

Entry CSCC[C@H](NC(C)=O)C(=O)O : reported solubility (mole fraction) = ?
0.013

* * *

setupConditions: in methyl acetate, 313.15 K
testReadout: solubility (mole fraction)
Please state the value as a number alone, without comment.

Entry CSCC[C@H](NC(C)=O)C(=O)O : reported solubility (mole fraction) = ?
0.0358

* * *

setupConditions: in n-propanol, 313.15 K
testReadout: solubility (mole fraction)
Please state the value as a number alone, without comment.

Entry CSCC[C@H](NC(C)=O)C(=O)O : reported solubility (mole fraction) = ?
0.237

* * *

setupConditions: in 2-butanone, 323.15 K
testReadout: solubility (mole fraction)
Please state the value as a number alone, without comment.

Entry CSCC[C@H](NC(C)=O)C(=O)O : reported solubility (mole fraction) = ?
0.18

* * *

setupConditions: in 2-butanone, 318.15 K
testReadout: solubility (mole fraction)
Please state the value as a number alone, without comment.

Entry CSCC[C@H](NC(C)=O)C(=O)O : reported solubility (mole fraction) = ?
0.135

* * *

setupConditions: in ethyl acetate, 293.15 K
testReadout: solubility (mole fraction)

Entry CSCC[C@H](NC(C)=O)C(=O)O : reported solubility (mole fraction) = ?
0.00846

* * *

setupConditions: in n-propyl acetate, 308.15 K
testReadout: solubility (mole fraction)
Please state the value as a number alone, without comment.

Entry CSCC[C@H](NC(C)=O)C(=O)O : reported solubility (mole fraction) = ?
0.0107

* * *

setupConditions: in n-butyl acetate, 318.15 K
testReadout: solubility (mole fraction)
Please state the value as a number alone, without comment.

Entry CSCC[C@H](NC(C)=O)C(=O)O : reported solubility (mole fraction) = ?
0.0137

* * *

setupConditions: in n-butanol, 288.15 K
testReadout: solubility (mole fraction)
Please state the value as a number alone, without comment.

Entry CSCC[C@H](NC(C)=O)C(=O)O : reported solubility (mole fraction) = ?
0.0697

* * *

setupConditions: in dimethyl carbonate, 308.15 K
testReadout: solubility (mole fraction)
Please state the value as a number alone, without comment.

Entry CSCC[C@H](NC(C)=O)C(=O)O : reported solubility (mole fraction) = ?
0.00835

* * *

setupConditions: in ethanol, 313.15 K
testReadout: solubility (mole fraction)

Entry CSCC[C@H](NC(C)=O)C(=O)O : reported solubility (mole fraction) = ?
0.285

* * *

setupConditions: in ethyl acetate, 298.15 K
testReadout: solubility (mole fraction)

Entry CSCC[C@H](NC(C)=O)C(=O)O : reported solubility (mole fraction) = ?
0.0101

* * *

setupConditions: in n-propyl acetate, 298.15 K
testReadout: solubility (mole fraction)
Please state the value as a number alone, without comment.

Entry CSCC[C@H](NC(C)=O)C(=O)O : reported solubility (mole fraction) = ?
0.00685

* * *

setupConditions: in n-propanol, 318.15 K
testReadout: solubility (mole fraction)

Entry CSCC[C@H](NC(C)=O)C(=O)O : reported solubility (mole fraction) = ?
0.281

* * *

setupConditions: in n-butyl acetate, 313.15 K
testReadout: solubility (mole fraction)
Please state the value as a number alone, without comment.

Entry CSCC[C@H](NC(C)=O)C(=O)O : reported solubility (mole fraction) = ?
0.0103

* * *

setupConditions: in acetonitrile, 313.15 K
testReadout: solubility (mole fraction)
Please state the value as a number alone, without comment.

Entry CSCC[C@H](NC(C)=O)C(=O)O : reported solubility (mole fraction) = ?
0.0549

* * *

setupConditions: in acetonitrile, 293.15 K
testReadout: solubility (mole fraction)
Please state the value as a number alone, without comment.

Entry CSCC[C@H](NC(C)=O)C(=O)O : reported solubility (mole fraction) = ?
0.0119

* * *

setupConditions: in n-propyl acetate, 318.15 K
testReadout: solubility (mole fraction)
Please state the value as a number alone, without comment.

Entry CSCC[C@H](NC(C)=O)C(=O)O : reported solubility (mole fraction) = ?
0.0171

* * *

setupConditions: in n-propanol, 293.15 K
testReadout: solubility (mole fraction)
Please state the value as a number alone, without comment.

Entry CSCC[C@H](NC(C)=O)C(=O)O : reported solubility (mole fraction) = ?
0.099

* * *

setupConditions: in n-propyl acetate, 283.15 K
testReadout: solubility (mole fraction)

Entry CSCC[C@H](NC(C)=O)C(=O)O : reported solubility (mole fraction) = ?
0.0037

* * *

setupConditions: in n-pentanol, 313.15 K
testReadout: solubility (mole fraction)
Please state the value as a number alone, without comment.

Entry CSCC[C@H](NC(C)=O)C(=O)O : reported solubility (mole fraction) = ?
0.14

* * *

setupConditions: in 2-butanone, 303.15 K
testReadout: solubility (mole fraction)
Please state the value as a number alone, without comment.

Entry CSCC[C@H](NC(C)=O)C(=O)O : reported solubility (mole fraction) = ?
0.0546

* * *

setupConditions: in n-propanol, 298.15 K
testReadout: solubility (mole fraction)
Please state the value as a number alone, without comment.

Entry CSCC[C@H](NC(C)=O)C(=O)O : reported solubility (mole fraction) = ?
0.127

* * *

setupConditions: in methyl acetate, 283.15 K
testReadout: solubility (mole fraction)
Please state the value as a number alone, without comment.

Entry CSCC[C@H](NC(C)=O)C(=O)O : reported solubility (mole fraction) = ?
0.00709

* * *

setupConditions: in methyl acetate, 288.15 K
testReadout: solubility (mole fraction)
Please state the value as a number alone, without comment.

Entry CSCC[C@H](NC(C)=O)C(=O)O : reported solubility (mole fraction) = ?
0.00877

* * *

setupConditions: in dimethyl carbonate, 313.15 K
testReadout: solubility (mole fraction)
Please state the value as a number alone, without comment.

Entry CSCC[C@H](NC(C)=O)C(=O)O : reported solubility (mole fraction) = ?
0.0109

* * *

setupConditions: in n-pentanol, 293.15 K
testReadout: solubility (mole fraction)
Please state the value as a number alone, without comment.

Entry CSCC[C@H](NC(C)=O)C(=O)O : reported solubility (mole fraction) = ?
0.0609

* * *

setupConditions: in n-butyl acetate, 323.15 K
testReadout: solubility (mole fraction)
Please state the value as a number alone, without comment.

Entry CSCC[C@H](NC(C)=O)C(=O)O : reported solubility (mole fraction) = ?
0.0171

* * *

setupConditions: in dimethyl carbonate, 283.15 K
testReadout: solubility (mole fraction)
Please state the value as a number alone, without comment.

Entry CSCC[C@H](NC(C)=O)C(=O)O : reported solubility (mole fraction) = ?
0.00222

* * *

setupConditions: in dimethyl carbonate, 298.15 K
testReadout: solubility (mole fraction)

Entry CSCC[C@H](NC(C)=O)C(=O)O : reported solubility (mole fraction) = ?
0.00531

* * *

setupConditions: in acetone, 283.15 K
testReadout: solubility (mole fraction)
Please state the value as a number alone, without comment.

Entry CSCC[C@H](NC(C)=O)C(=O)O : reported solubility (mole fraction) = ?
0.0372

* * *

setupConditions: in n-butyl acetate, 298.15 K
testReadout: solubility (mole fraction)
Please state the value as a number alone, without comment.

Entry CSCC[C@H](NC(C)=O)C(=O)O : reported solubility (mole fraction) = ?
0.00536

* * *

setupConditions: in n-butyl acetate, 293.15 K
testReadout: solubility (mole fraction)
Please state the value as a number alone, without comment.

Entry CSCC[C@H](NC(C)=O)C(=O)O : reported solubility (mole fraction) = ?
0.00409

* * *

setupConditions: in acetone, 293.15 K
testReadout: solubility (mole fraction)
Please state the value as a number alone, without comment.

Entry CSCC[C@H](NC(C)=O)C(=O)O : reported solubility (mole fraction) = ?
0.0643

* * *

setupConditions: in n-propyl acetate, 288.15 K
testReadout: solubility (mole fraction)
Please state the value as a number alone, without comment.

Entry CSCC[C@H](NC(C)=O)C(=O)O : reported solubility (mole fraction) = ?
0.00414

* * *

setupConditions: in methyl acetate, 303.15 K
testReadout: solubility (mole fraction)
Please state the value as a number alone, without comment.

Entry CSCC[C@H](NC(C)=O)C(=O)O : reported solubility (mole fraction) = ?
0.0193

* * *

setupConditions: in n-butanol, 283.15 K
testReadout: solubility (mole fraction)
Please state the value as a number alone, without comment.

Entry CSCC[C@H](NC(C)=O)C(=O)O : reported solubility (mole fraction) = ?
0.0531

* * *

setupConditions: in n-pentanol, 323.15 K
testReadout: solubility (mole fraction)
Please state the value as a number alone, without comment.

Entry CSCC[C@H](NC(C)=O)C(=O)O : reported solubility (mole fraction) = ?
0.212

* * *

setupConditions: in acetonitrile, 288.15 K
testReadout: solubility (mole fraction)
Please state the value as a number alone, without comment.

Entry CSCC[C@H](NC(C)=O)C(=O)O : reported solubility (mole fraction) = ?
0.00873

* * *

setupConditions: in ethyl acetate, 308.15 K
testReadout: solubility (mole fraction)

Entry CSCC[C@H](NC(C)=O)C(=O)O : reported solubility (mole fraction) = ?
0.0169
